The reported numbers originate from ChEMBL document CHEMBL5584321.

method description: Half life in immunized Sprague-Dawley rat at 1.5 mg/kg,SC administration measured upto 24 hrs by fluorescence based microplate reader assay
Assay type: ADME, organism-based
measurement conditions: in vivo
observed property: half-life (h)
Please reply with the bare figure in h and do not write the unit itself.

Query string: Requested field: half-life. Item: H-YRSRKYSSWYVALKRLPET-NH2
Result string: 2.12

* * *

method description: Cmax in immunized Sprague-Dawley rat at 1.5 mg/kg,SC administration measured upto 24 hrs by fluorescence based microplate reader assay
Format: ADME, organism-based
measurement conditions: in vivo
observed property: Cmax

Query string: Requested field: Cmax. Item: H-YRSRKYSSWYVALKRLPET-NH2
Result string: 205 ng/mL
